target: T1, rat cMET (rat, UniProt P97523 25-935, limits assumed)
T1 construct: also called rMET
T1 sequence (P97523 25-935 limits assumed): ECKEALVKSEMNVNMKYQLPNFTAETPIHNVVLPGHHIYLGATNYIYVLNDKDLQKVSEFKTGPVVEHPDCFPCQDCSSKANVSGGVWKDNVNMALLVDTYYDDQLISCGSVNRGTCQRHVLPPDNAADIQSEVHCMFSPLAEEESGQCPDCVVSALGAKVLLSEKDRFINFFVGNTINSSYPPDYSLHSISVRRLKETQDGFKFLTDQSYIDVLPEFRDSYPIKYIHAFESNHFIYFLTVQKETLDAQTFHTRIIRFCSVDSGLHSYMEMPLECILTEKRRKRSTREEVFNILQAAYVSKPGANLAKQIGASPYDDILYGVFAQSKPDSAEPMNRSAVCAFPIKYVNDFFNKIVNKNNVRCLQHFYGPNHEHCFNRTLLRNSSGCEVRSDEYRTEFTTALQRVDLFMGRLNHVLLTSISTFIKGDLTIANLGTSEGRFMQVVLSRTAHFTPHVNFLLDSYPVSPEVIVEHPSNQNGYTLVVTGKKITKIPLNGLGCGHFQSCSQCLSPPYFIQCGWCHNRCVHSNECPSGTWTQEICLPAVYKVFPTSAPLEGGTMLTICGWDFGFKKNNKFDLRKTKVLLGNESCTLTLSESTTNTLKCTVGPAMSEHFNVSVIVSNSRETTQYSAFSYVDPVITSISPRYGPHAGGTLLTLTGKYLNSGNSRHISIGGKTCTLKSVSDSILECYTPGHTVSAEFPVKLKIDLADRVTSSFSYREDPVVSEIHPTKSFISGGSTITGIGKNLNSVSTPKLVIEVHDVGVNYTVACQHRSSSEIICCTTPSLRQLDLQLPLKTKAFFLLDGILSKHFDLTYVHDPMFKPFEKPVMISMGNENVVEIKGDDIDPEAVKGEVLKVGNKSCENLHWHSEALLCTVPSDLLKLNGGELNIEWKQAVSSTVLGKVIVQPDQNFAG
methodDescription: ELISA on rat cMET, ratio against the parental antibody
observable: ELISA rMET vs parental
Just the number, please, no unit after it.

humanized P3D12 antibody, HC SEQ ID NO: 107 (P3D12 VH-abb/sdr) / LC SEQ ID NO: 47 (P3D12 VL-fra) (antibody, V domains shown) VH: QVQLVQSGAEVKKPGASVKVSCKASGYTFTSYWMHWVKQAPGQGLDWMGYIKPSTDNTEYAQKFQGRVTLTADKSTSTAYMELSSLRSEDTAVYYCARSYGNYPLMDYWGQGTTVTVSS VL: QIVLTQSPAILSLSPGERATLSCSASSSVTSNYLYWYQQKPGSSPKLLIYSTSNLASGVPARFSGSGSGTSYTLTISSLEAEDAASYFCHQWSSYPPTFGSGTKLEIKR ... 0.5

Next binder, ELISA rMET vs parental to be filled in.
# ELISA rMET vs parental lookup, item humanized P3D12 antibody, HC SEQ ID NO: 105 (P3D12 VH-fra) / LC SEQ ID NO: 48 (P3D12 VL-abb/sdr) (antibody, V domains shown) VH: QVQLQQSGAEVKKPGASVKVSCKASGYTFTSYWMHWVKQRPGQGLDWIGYIKPSTDNTEYNQKFKDRVTLTADKSTSTAYMQLSNLISEDTAVYYCARSYGNYPLMDYWGQGTSVTVSS VL: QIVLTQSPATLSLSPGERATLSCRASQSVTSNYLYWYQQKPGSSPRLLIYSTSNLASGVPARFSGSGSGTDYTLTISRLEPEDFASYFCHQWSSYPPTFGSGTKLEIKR
3.8
